- Test system: Col2
- assay.text: Cytotoxicity against human Col2 cells after 72 hrs by sulforhodamine B assay
- assay.setup: Col2, 72 h, read-out: ED50 (the source's name)
Let's look at some compounds and their measured EC50.
Just the number in µg/mL, nothing appended.

These recorded examples may help you get a feel for the data.
{"columns": ["compound.structure.string", "EC50 [µg/mL]"],
 "data": [
  ["CC1=C(O)C(=O)C=C2C1=CC=C1[C@@]2(C)CC[C@@]2(C)[C@@H]3C[C@](C)(C(=O)O)CC[C@]3(C)CC[C@]12C", 2.3],
  ["CC1=C(O)C(=O)C=C2C1=CC=C1[C@@]2(C)CC[C@@]2(C)[C@@H]3C[C@@H](C)C(=O)C[C@]3(C)CC[C@]12C", 0.2]
]}

Next:
*Q* Please give the measured EC50 for this compound: CC1=C(O)C(=O)C=C2C1=CC=C1[C@@]2(C)CC[C@@]2(C)[C@@H]3C[C@@](C)(O)C(=O)C[C@]3(C)CC[C@]12C
*A* 5.8
